Test system: OVCAR-5 ovarian
Assay: NCI-60 one-dose screen, 48 h (100 = growth as untreated, 0 = no growth, -100 = all killed)
Conditions: 10 µM unless noted
About 83,000 compounds went through this panel and 20% of them were active in at least one assay; those are over-represented in the sample as a whole.
PROPERTY MEASURED: growth (%)
Answer in %, number only, no unit symbol.

• CCOc1ccc(/C=N\N2CCCCCC2)cc1OCC = 95
• Nc1nc(N)c(N=Nc2c(Br)cc(S(N)(=O)=O)cc2Br)c(N)n1 = 109

The measured growth associated with "O=C(Nc1ccccc1)Oc1cccc2cccnc12" reads 92.9

// field: growth; key: "CCCCCCCC/C=C\CCCCCCCCOc1cccc(CC(=O)NCC[N+]2(C)CCCC2)c1" ; value = 53.8

Origin of measurements: PubChem BioAssay (NCI)
